target: human ACC2 (Homo sapiens (Human)); assay: ACC2 assay (spectrophotometric 384 well assay, NADH-linked kinetic method); format: biochemical; conditions: hACC2 construct lacking 128 N-terminal amino acids; coupled lactate dehydrogenase/pyruvate kinase reaction, 340 nm, 25° C.
Sequence (O00763 129-2458): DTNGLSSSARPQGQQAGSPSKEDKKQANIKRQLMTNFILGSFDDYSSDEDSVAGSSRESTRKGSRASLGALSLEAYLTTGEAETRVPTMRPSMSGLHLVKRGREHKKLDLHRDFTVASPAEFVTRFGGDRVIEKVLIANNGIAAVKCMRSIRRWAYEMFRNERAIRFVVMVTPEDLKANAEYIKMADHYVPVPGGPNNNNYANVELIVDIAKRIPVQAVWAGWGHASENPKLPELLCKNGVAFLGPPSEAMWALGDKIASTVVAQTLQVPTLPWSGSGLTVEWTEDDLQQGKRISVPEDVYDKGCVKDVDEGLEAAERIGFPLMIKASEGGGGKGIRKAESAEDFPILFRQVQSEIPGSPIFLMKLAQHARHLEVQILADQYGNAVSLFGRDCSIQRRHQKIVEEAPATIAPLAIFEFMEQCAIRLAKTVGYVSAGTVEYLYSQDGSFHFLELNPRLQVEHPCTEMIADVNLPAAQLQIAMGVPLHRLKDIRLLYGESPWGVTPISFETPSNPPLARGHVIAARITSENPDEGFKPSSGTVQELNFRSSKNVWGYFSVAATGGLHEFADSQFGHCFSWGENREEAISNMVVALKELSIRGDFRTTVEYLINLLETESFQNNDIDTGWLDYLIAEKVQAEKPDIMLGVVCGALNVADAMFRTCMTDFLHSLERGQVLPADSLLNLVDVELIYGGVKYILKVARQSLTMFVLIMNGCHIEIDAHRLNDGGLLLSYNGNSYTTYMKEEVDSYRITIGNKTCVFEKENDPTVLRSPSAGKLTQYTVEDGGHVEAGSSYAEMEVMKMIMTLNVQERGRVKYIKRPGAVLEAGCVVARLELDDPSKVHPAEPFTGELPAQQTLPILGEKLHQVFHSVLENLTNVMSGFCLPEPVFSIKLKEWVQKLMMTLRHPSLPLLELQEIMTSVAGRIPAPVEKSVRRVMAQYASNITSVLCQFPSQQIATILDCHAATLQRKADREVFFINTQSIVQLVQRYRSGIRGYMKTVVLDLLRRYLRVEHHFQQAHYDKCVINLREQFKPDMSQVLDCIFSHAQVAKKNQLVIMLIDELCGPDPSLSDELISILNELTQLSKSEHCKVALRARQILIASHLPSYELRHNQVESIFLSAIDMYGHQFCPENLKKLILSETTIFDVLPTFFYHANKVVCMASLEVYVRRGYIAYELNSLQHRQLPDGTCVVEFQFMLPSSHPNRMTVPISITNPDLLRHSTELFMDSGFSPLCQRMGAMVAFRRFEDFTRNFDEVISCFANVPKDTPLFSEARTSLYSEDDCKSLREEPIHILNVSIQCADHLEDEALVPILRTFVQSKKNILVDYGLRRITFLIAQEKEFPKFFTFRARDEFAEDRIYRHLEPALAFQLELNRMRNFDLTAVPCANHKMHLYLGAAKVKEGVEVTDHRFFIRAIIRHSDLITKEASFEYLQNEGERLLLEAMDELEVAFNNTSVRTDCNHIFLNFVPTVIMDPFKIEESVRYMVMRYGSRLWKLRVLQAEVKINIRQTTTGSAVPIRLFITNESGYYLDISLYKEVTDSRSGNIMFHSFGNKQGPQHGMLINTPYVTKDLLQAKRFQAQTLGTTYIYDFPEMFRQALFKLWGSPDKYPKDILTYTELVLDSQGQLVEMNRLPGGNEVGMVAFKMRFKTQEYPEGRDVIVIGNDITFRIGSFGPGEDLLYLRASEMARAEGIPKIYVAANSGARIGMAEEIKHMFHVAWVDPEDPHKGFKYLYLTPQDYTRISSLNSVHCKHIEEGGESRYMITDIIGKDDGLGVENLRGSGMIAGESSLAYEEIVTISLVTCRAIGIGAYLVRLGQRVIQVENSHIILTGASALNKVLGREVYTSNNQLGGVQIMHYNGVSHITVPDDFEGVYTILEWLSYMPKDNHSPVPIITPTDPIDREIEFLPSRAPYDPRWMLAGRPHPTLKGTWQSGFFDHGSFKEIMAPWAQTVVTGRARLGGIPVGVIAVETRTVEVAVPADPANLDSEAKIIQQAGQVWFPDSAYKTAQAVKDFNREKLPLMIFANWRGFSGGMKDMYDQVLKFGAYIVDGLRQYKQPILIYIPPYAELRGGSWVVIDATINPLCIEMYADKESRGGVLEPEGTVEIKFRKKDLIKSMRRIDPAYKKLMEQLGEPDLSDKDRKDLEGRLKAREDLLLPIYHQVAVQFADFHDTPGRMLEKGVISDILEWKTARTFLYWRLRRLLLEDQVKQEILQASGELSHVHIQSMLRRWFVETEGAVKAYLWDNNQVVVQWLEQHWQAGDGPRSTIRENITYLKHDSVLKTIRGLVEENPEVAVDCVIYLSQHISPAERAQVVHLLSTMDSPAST
Value type: IC50
A bare number is not enough; add the unit after it.

CC(=O)N[C@@H](C)c1ccc(O[C@@H]2CCN(c3ncnc(OCC(C)(F)F)c3Cl)C2)cc1 :: 0.06 µM
C[C@H](NC(=O)N(C)C)c1ccc(OC2CCN(c3ncnc(OCC(C)(C)O)c3F)C2)cc1 (stereo partly drawn) :: 0.278 µM

// fetch IC50 for CC(=O)N[C@@H](C)c1ccc(O[C@@H]2CCN(c3nc(N(C)CCOC(C)(C)C)ncc3F)C2)cc1 ; system: human ACC2 (Homo sapiens (Human))
0.719 µM
